Exercise: state measured pIC50 for each of the molecules provided.
System name: AfAGM1 (A. fumigatus N-acetylphosphoglucosamine mutase) (Aspergillus fumigatus, UniProt Q4WJF0, DEL85-101)
Construct: deletion of VSSYGTFDGGMKGEFAD, residues 85–101 of XP_750370 (likely alternative splicing); GST tag cleaved; pSer69
Sequence (Q4WJF0 entry or part of it DEL85-101): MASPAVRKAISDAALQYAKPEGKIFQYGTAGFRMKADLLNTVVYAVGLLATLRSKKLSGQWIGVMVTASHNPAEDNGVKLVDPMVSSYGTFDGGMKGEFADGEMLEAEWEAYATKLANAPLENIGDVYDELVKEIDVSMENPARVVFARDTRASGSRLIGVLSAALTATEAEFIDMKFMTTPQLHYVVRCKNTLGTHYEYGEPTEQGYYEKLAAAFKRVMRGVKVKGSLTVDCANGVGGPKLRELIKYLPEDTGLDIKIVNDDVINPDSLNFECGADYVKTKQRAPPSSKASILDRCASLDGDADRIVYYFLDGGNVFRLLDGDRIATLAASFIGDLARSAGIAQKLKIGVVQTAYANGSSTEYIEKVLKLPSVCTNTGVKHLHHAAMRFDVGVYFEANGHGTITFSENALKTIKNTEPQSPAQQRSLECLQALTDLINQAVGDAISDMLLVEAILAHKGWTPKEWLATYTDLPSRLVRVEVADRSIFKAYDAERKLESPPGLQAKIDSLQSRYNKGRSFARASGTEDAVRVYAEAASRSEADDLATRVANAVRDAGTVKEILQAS
Assay notes: direct HPAEC-PAD enzyme assay, […] Glc-1P
Scale: pIC50 equals -log10([C]), with [C] in mol/L.

# lookup: pIC50 of NC(Cc1cc(O)c(O)cc1O)C(=O)O (racemic) [compound 3, 6-hydroxy-DL-DOPA] 4.24

Follow-up item: Cc1nc(/N=N/c2ccc(C(=O)O)cc2)c(COP(=O)(O)O)c(C=O)c1O 5.15

###

System name: AfAGM1 (A. fumigatus N-acetylphosphoglucosamine mutase) (Aspergillus fumigatus, UniProt Q4WJF0, DEL85-101)
Construct: deletion of VSSYGTFDGGMKGEFAD, residues 85–101 of XP_750370 (likely alternative splicing); GST tag cleaved; pSer69
Assay notes: enzyme inhibition kinetics, Lineweaver–Burk plot
Property label: pKi
Scale: pKi equals -log10([C]), with [C] in mol/L.

# lookup: pKi of Nc1ccc(O)c2c1C(=O)c1c(O)ccc(N)c1C2=O [compound 1, 1,5-diamino-4,8-dihydroxyanthraquinone] 3.52
